Kd overview
molecular target: T1, Aβ1-42 fibrils (human); assay: SPR (BIAcore T200); Aβ1-42 fibrils immobilized, Fab as analyte; global 1:1 fit; apparent KD
T1 construct: Aβ1-42 polypeptide, HFIP-treated, incubated in 10 mM HCl at 37 C for 24 h, pelleted fibrillar fraction, sonicated; Multimeric fibril; also called fibril Aβ42; fibrillar Aβ42
T1 sequence (peptide, as listed by the source): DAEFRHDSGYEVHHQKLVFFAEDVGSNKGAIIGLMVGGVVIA
VALUE TYPE: Kd

>  <BINDER>
h2831 Fab (Fab, V domains shown) VH: EVQLLESGGGLVQPGGSLRLSCAASGFTFSNFGMSWVRQAPGKGLEWVASVRSGSGRTYYSDNVKGRFTISRDNSKNTLYLQMNSLRAEDTAVYYCVRYDHYSGTSDYWGQGTLVTVSS VL: DVVMTQSPLSLPVTLGEPASISCKSSQSLLDYDGKTYLNWLLQKPGQSPQRLIYRVTNRDTGVPDRFSGSGSGTDFTLKISRVEAEDVGVYYCWQGTHFPRSFGQGTKVEIK

>  <VALUE MEASURED>
2.31 nM

$$$$
>  <BINDER>
h2726 Fab (Fab, V domains shown) VH: EVQLLESGGGLVQPGGSLRLSCAASGFTFSNYGMSWVRQAPGKGLEWVASIRSGSGRTYYSDNVKGRFTISRDNSKNTLYLQMNSLRAEDTAVYYCVRYDHYSGSSDYWGQGTLVTVSS VL: DVVMTQSPLSLPVTPGEPASISCKSSQSLLDYDGKTYLNWLLQKPGQSPQRLIYKVSNRDSGVPDRFSGSGSGTDFTLKISRVEAEDVGVYYCWQGTHFPRTFGQGTKVEIK

>  <VALUE MEASURED>
2.01 nM

$$$$
